Target: Human glucagon receptor (human, UniProt P47871 26-477)
Assay: cell-based or functional assay
Where no end group is shown, it is not given here. [ ]: non-standard residue; d: D form. αMePhe(2-F) = C[C@](N)(Cc1ccccc1F)C(=O)O; Aib = CC(C)(N)C(=O)O
cAMP production with saturated glucagon peptide; test compound 100 nM values, listed per item
Record the value in pmol/ml/µg prt, omitting the unit from your answer.

| BINDER | RECORDED_NUMBER |
| --- | --- |
| HAQGT[αMePhe(2-F)]TSD[Bip(OMe)][Bip(2Me)] [Seq. ID. No. 25: HAQGT-(α-Me-2F-Phe)-TSD-Bip(OMe)-Bip(2Me)] | 12 |
| HXQGTXTSDXX (Aib at 2; α-Me-2F-Phe at 6; Bip(OMe) at 10; Bip(Pyr) at 11) [Seq. ID. No. 30: H-Aib-QGT-(α-Me-2F-Phe)-TSD-Bip(OMe)-Bip(Pyr)] | 5 |
| HSQGTXTSDXX (α-Me-2F-Phe at 6; Bip(OMe) at 10; Bip(2F) at 11) [Seq. ID. No. 23: HSQGT-(α-Me-2F-Phe)-TSD-Bip(OMe)-Bip(2F)] | 2 |
| HAQGT[αMePhe(2-F)]TSD[Bip(OMe)][Bip(Pyr)] [Seq. ID. No. 26: HAQGT-(α-Me-2F-Phe)-TSD-Bip(OMe)-Bip(Pyr)] | 8 |
| H[Aib]QGTFTSD[Bip(OMe)][Bip(2F)] [Seq. ID. No. 15: H-Aib-QGTFTSD-Bip(OMe)-Bip(2F)] | 2 |

// next item, cAMP production with saturated glucagon peptide; test compound 100 nM requested
Quick one: cAMP production with saturated glucagon peptide; test compound 100 nM for HSQGTFTSD[Bip(OMe)][Bip(2F)] (not fully specified (C-terminus); printed as HSQGTFTSD-Bip(OMe)-Bip(2F)) [Seq. ID. No. 7: HSQGTFTSD-Bip(OMe)-Bip(2F)] ?
2
